Reported Ki values follow for various compounds
Target: hCA IV (Homo sapiens)
Sequence (P22748 19-312): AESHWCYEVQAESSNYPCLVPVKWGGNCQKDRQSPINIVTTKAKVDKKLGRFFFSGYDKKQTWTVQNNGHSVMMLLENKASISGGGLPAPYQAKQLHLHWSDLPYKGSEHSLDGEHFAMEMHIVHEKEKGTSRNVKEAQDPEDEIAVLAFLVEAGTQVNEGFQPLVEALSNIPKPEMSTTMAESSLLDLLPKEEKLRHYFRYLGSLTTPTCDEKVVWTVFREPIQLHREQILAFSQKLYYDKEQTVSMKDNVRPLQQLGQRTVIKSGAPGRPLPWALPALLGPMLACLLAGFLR
Assay: stopped-flow CO2 hydrase assay, hCA IV
Settings: recombinant enzyme, 15 min preincubation, pH 8.3, mean from 3 assays
Give the value in µM but do not write µM after it.

Before answering, review these 5 worked examples.
| compound | measured |
| --- | --- |
| CC(Nc1nc(Nc2ccc(S(N)(=O)=O)cc2)nc(NC(C)C(=O)O)n1)C(=O)O (centres unmarked) [compound 4] | 0.0881 |
| NC(=O)CC(Nc1nc(Nc2ccc(S(N)(=O)=O)cc2)nc(NC(CC(N)=O)C(=O)O)n1)C(=O)O (centres unmarked) [compound 9] | 5.33 |
| CC(Nc1nc(NCc2ccc(S(N)(=O)=O)cc2)nc(NC(C)C(=O)O)n1)C(=O)O (centres unmarked) [compound 11] | 0.47 |
| NS(=O)(=O)c1ccc(CNc2nc(NC(CO)C(=O)O)nc(NC(CO)C(=O)O)n2)cc1 (centres unmarked) [compound 14] | 6.1 |
| CC(Nc1nc(NCCc2ccc(S(N)(=O)=O)cc2)nc(NC(C)C(=O)O)n1)C(=O)O (centres unmarked) [compound 18] | 3.86 |

Next:
Task item: Report the value of Ki obtained on hCA IV (Homo sapiens) for NS(=O)(=O)c1ccc(Nc2nc(NC(CO)C(=O)O)nc(NC(CO)C(=O)O)n2)cc1 (centres unmarked) [compound 7] .
Reply: 8.7

----------
Target: hCA IX (Homo sapiens)
Test: stopped-flow CO2 hydrase assay, hCA IX
Conditions: recombinant enzyme, 15 min preincubation, pH 8.3, mean from 3 assays
Reported Ki values follow for various compounds
Give the value in µM but do not write µM after it.

Before answering, review these 6 worked examples.
| compound | result.unit | Ki |
| --- | --- | --- |
| NC(=O)CCC(Nc1nc(NCc2ccc(S(N)(=O)=O)cc2)nc(NC(CCC(N)=O)C(=O)O)n1)C(=O)O (stereo not shown) | µM | 0.458 |
| NS(=O)(=O)c1ccc(CNc2nc(NC(Cc3ccc(O)cc3)C(=O)O)nc(NC(Cc3ccc(O)cc3)C(=O)O)n2)cc1 (stereo not shown) | µM | 0.0873 |
| CC(O)C(Nc1nc(Nc2ccc(S(N)(=O)=O)cc2)nc(NC(C(=O)O)C(C)O)n1)C(=O)O (stereo not shown) | µM | 0.867 |
| NS(=O)(=O)c1ccc(Nc2nc(N[C@@H](Cc3c[nH]c4ccccc34)C(=O)O)nc(N[C@@H](Cc3c[nH]c4ccccc34)C(=O)O)n2)cc1 | µM | 0.0452 |
| NS(=O)(=O)c1ccc(Nc2nc(NC(CO)C(=O)O)nc(NC(CO)C(=O)O)n2)cc1 (stereo not shown) | µM | 0.465 |
| NS(=O)(=O)c1ccc(CCNc2nc(NC(Cc3ccc(O)cc3)C(=O)O)nc(NC(Cc3ccc(O)cc3)C(=O)O)n2)cc1 (stereo not shown) | µM | 0.0611 |

Next:
Task item: Tell me its Ki given CC(O)C(Nc1nc(NCCc2ccc(S(N)(=O)=O)cc2)nc(NC(C(=O)O)C(C)O)n1)C(=O)O (stereo not shown) as the entry.
Reply: 0.0895

----------
Biological target: hCA XII (Homo sapiens, UniProt O43570)
Construct: made in house
Sequence (O43570 25-354): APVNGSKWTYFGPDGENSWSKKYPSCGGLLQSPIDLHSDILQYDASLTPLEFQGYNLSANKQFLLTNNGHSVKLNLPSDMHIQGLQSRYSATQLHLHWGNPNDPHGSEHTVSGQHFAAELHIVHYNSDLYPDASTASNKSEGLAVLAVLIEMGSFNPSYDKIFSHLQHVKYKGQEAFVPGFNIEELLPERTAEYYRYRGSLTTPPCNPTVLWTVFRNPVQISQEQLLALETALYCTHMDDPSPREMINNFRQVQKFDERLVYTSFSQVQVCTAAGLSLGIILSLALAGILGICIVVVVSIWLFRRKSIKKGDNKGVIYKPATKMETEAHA
Test: stopped-flow CO2 hydrase assay, hCA XII
Format: biochemical
Conditions: ratio Ki hCA II / Ki hCA XII
Reported Selectivity II/XII values follow for various molecules
// keep it numeric: no unit symbol after the value

Before answering, review these 5 worked examples.
| molecule | measured |
| --- | --- |
| NS(=O)(=O)c1ccc(Nc2nc(N[C@@H](Cc3c[nH]c4ccccc34)C(=O)O)nc(N[C@@H](Cc3c[nH]c4ccccc34)C(=O)O)n2)cc1 [compound 6] | 0.20 |
| NS(=O)(=O)c1ccc(CCNc2nc(NC(Cc3ccc(O)cc3)C(=O)O)nc(NC(Cc3ccc(O)cc3)C(=O)O)n2)cc1 (stereo not drawn) [compound 19] | 1.70 |
| CC(Nc1nc(Nc2ccc(S(N)(=O)=O)cc2)nc(NC(C)C(=O)O)n1)C(=O)O (stereo not drawn) [compound 4] | 88.10 |
| CC(O)C(Nc1nc(NCCc2ccc(S(N)(=O)=O)cc2)nc(NC(C(=O)O)C(C)O)n1)C(=O)O (stereo not drawn) [compound 22] | 4.10 |
| NS(=O)(=O)c1ccc(Nc2nc(NC(CO)C(=O)O)nc(NC(CO)C(=O)O)n2)cc1 (stereo not drawn) [compound 7] | 7.30 |

Next:
Task item: Tell me its Selectivity II/XII given NC(=O)CC(Nc1nc(Nc2ccc(S(N)(=O)=O)cc2)nc(NC(CC(N)=O)C(=O)O)n1)C(=O)O (stereo not drawn) [compound 9] as the entry.
Reply: 17.10

----------
Molecular target: hCA IX (Homo sapiens, UniProt Q16790)
Construct: made in house
Assay: stopped-flow CO2 hydrase assay, hCA IX
Format: biochemical
Conditions: ratio Ki hCA II / Ki hCA IX
Reported Selectivity II/IX values follow for various compounds
// keep it numeric: no unit symbol after the value

| compound | attribute.measured | measured |
| --- | --- | --- |
| NC(=O)CC(Nc1nc(Nc2ccc(S(N)(=O)=O)cc2)nc(NC(CC(N)=O)C(=O)O)n1)C(=O)O (stereo not shown) | Selectivity II/IX | 0.73 |
| NC(=O)CCC(Nc1nc(NCc2ccc(S(N)(=O)=O)cc2)nc(NC(CCC(N)=O)C(=O)O)n1)C(=O)O (stereo not shown) | Selectivity II/IX | 0.52 |
| NC(=O)CCC(Nc1nc(Nc2ccc(S(N)(=O)=O)cc2)nc(NC(CCC(N)=O)C(=O)O)n1)C(=O)O (stereo not shown) | Selectivity II/IX | 1.24 |
| NS(=O)(=O)c1ccc(Nc2nc(NC(Cc3ccc(O)cc3)C(=O)O)nc(NC(Cc3ccc(O)cc3)C(=O)O)n2)cc1 (stereo not shown) | Selectivity II/IX | 0.06 |
| NS(=O)(=O)c1ccc(CNc2nc(NC(Cc3ccc(O)cc3)C(=O)O)nc(NC(Cc3ccc(O)cc3)C(=O)O)n2)cc1 (stereo not shown) | Selectivity II/IX | 0.61 |
| NS(=O)(=O)c1ccc(CCNc2nc(NC(Cc3ccc(O)cc3)C(=O)O)nc(NC(Cc3ccc(O)cc3)C(=O)O)n2)cc1 (stereo not shown) | Selectivity II/IX | 0.21 |

Next:
Task item: Tell me its Selectivity II/IX given NC(=O)CC(Nc1nc(NCc2ccc(S(N)(=O)=O)cc2)nc(NC(CC(N)=O)C(=O)O)n1)C(=O)O (stereo not shown) as the entry.
Reply: 2.63

----------
Target: hCA XII (Homo sapiens, UniProt O43570)
Construct: made in house
Assay: stopped-flow CO2 hydrase assay, hCA XII
Type: biochemical
Conditions: ratio Ki hCA II / Ki hCA XII
hey, just use MET if measured Selectivity II/XII is less than 3, otherwise NOT MET

| molecule | assigned.class |
| --- | --- |
| NC(=O)CC(Nc1nc(NCCc2ccc(S(N)(=O)=O)cc2)nc(NC(CC(N)=O)C(=O)O)n1)C(=O)O (stereo not shown) | MET |
| NS(=O)(=O)c1ccc(CNc2nc(NC(Cc3c[nH]c4ccccc34)C(=O)O)nc(NC(Cc3c[nH]c4ccccc34)C(=O)O)n2)cc1 (stereo not shown) | MET |
| NC(=O)CCC(Nc1nc(NCc2ccc(S(N)(=O)=O)cc2)nc(NC(CCC(N)=O)C(=O)O)n1)C(=O)O (stereo not shown) | NOT MET |

Task item: Take the molecule NS(=O)(=O)c1ccc(CNc2nc(NC(CO)C(=O)O)nc(NC(CO)C(=O)O)n2)cc1 (stereo not shown) and say whether its Selectivity II/XII is less than 3.
Reply: NOT MET

Task item: Take the molecule NS(=O)(=O)c1ccc(CNc2nc(NC(Cc3ccc(O)cc3)C(=O)O)nc(NC(Cc3ccc(O)cc3)C(=O)O)n2)cc1 (stereo not shown) and say whether its Selectivity II/XII is less than 3.
Reply: NOT MET

Task item: Take the molecule NC(=O)CCC(Nc1nc(NCCc2ccc(S(N)(=O)=O)cc2)nc(NC(CCC(N)=O)C(=O)O)n1)C(=O)O (stereo not shown) and say whether its Selectivity II/XII is less than 3.
Reply: NOT MET

Task item: Take the molecule CC(Nc1nc(NCc2ccc(S(N)(=O)=O)cc2)nc(NC(C)C(=O)O)n1)C(=O)O (stereo not shown) and say whether its Selectivity II/XII is less than 3.
Reply: NOT MET

----------
Target: hCA IX (Homo sapiens)
Experiment: stopped-flow CO2 hydrase assay, hCA IX
Conditions: recombinant enzyme, 15 min preincubation, pH 8.3, mean from 3 assays
hey, just use fulfilled if measured Ki is less than 300 nM, otherwise not fulfilled

| compound | assigned.class |
| --- | --- |
| NC(=O)CCC(Nc1nc(NCCc2ccc(S(N)(=O)=O)cc2)nc(NC(CCC(N)=O)C(=O)O)n1)C(=O)O (stereo not shown) | not fulfilled |

Okay, now this compound:
Task item: Take the compound CC(Nc1nc(Nc2ccc(S(N)(=O)=O)cc2)nc(NC(C)C(=O)O)n1)C(=O)O (stereo not shown) and say whether its Ki is less than 300 nM.
Reply: not fulfilled

This collection of values is drawn from paper PMC8537140.
